Attribute: IC50
Biological target: human P2X3 receptor (Homo sapiens (Human))
Experiment: Evaluation of human P2X3 receptor inhibitory activity (Fluo-3 calcium fluorescence, FDSS 3000, ATP stimulation)
Type: cell-based
Settings: C6BU-1 cells stably expressing human P2X3 receptor
Quick note: unit goes after the number.

| molecule | test system | observed value |
| --- | --- | --- |
| COc1cc(/N=c2\[nH]c(=O)n(CCC(=O)O)c(=O)n2Cc2ccc(Cl)cc2)ccc1CC(C)C | human P2X3 receptor (Homo sapiens (Human)) | 177 nM |
| Cc1ccc(Cn2c(=O)n(C[C@H](C)C(=O)O)c(=O)[nH]/c2=N\c2ccc3nc(C)oc3c2)cc1 | human P2X3 receptor (Homo sapiens (Human)) | 158 nM |
| Cc1ccc(Cn2c(=O)n(CC3(C(=O)O)CC3)c(=O)[nH]/c2=N\c2ccc(CC(C)C)c(Cl)c2)cc1 | human P2X3 receptor (Homo sapiens (Human)) | 5 nM |

Endpoint output: IC50 of Cc1ccc(Cn2c(=O)n(C[C@H](C)C(=O)O)c(=O)[nH]/c2=N\c2ccc(Oc3cccnc3C)cc2)cc1 . Value?
36 nM

Then COC(=O)C[C@@H](C)Cn1c(=O)[nH]/c(=N\c2ccc(OC(C)C)c(C)c2)n(Cc2ccc(Cl)cc2)c1=O ?
15 nM

Record: Cc1ccc(Cn2c(=O)n(CCC(=O)O)c(=O)[nH]/c2=N\c2ccc(Oc3ccncc3)cc2)cc1
9 nM

Same question, COC(=O)c1cccc(Oc2ccc(/N=c3\[nH]c(=O)[nH]c(=O)n3Cc3ccc(Cl)cc3)cc2)c1 this time
214 nM

Repeat with Cc1cc(/N=c2\[nH]c(=O)n(CCCC(=O)NCCO)c(=O)n2Cc2ccc(Cl)cc2)ccc1OC(C)C
32 nM

###

Molecular target: human P2X3 receptor (Homo sapiens (Human), UniProt P56373)
Sequence (P56373 whole entry): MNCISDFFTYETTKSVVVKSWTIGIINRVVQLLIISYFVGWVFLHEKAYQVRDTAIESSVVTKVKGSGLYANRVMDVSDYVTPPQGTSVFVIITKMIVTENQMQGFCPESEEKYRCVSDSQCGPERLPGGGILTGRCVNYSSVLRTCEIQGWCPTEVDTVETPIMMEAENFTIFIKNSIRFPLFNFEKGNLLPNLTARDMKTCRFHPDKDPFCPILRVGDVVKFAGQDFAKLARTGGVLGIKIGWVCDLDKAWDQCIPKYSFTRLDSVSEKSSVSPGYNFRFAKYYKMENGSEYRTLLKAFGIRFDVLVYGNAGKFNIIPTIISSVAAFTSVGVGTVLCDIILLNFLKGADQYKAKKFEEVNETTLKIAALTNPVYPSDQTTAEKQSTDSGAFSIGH
Experiment: Evaluation of human P2X3 receptor inhibitory activity (Fluo-3 calcium fluorescence, FDSS 3000, ATP stimulation)
Type: cell-based
Settings: C6BU-1 cells stably expressing human P2X3 receptor
assay metric: pIC50
// returns pIC50 (minus log10 of molar concentration), number only

Worked examples follow.
| smiles repr | observed value |
| --- | --- |
| O=c1[nH]c(=O)n(Cc2ccc(Cl)cc2)/c(=N/c2ccc(Oc3ccnc(CO)c3)cc2)[nH]1 | 7.19 |
| CCn1c(=O)[nH]/c(=N\c2ccc(Oc3cnc(C(=O)OC)cn3)cc2)n(Cc2ccc(Cl)cc2)c1=O | 8.70 |
| Cc1ccc(Cn2c(=O)n(CCC(=O)O)c(=O)[nH]/c2=N\c2cccc(C(F)(F)F)c2F)cc1 | 6.63 |

Now consider the entry below.
Report pIC50 for COc1ccc(/N=c2\[nH]c(=O)n(C[C@H](C)C(=O)O)c(=O)n2Cc2ccc(Cl)cc2)cc1Cl please.
6.60

###

Molecular target: human P2X3 receptor (Homo sapiens (Human), UniProt P56373)
Test: Evaluation of human P2X3 receptor inhibitory activity (Fluo-3 calcium fluorescence, FDSS 3000, ATP stimulation)
Format: cell-based
Conditions: C6BU-1 cells stably expressing human P2X3 receptor
assay metric: log10(IC50) (log10 of the value in nM)
// units: nM (pre-log); metric: IC50; scale: log10

Below, 10 compounds whose answers are already recorded.
| compound | log10(IC50) |
| --- | --- |
| C[C@H](C(=O)O)[C@@H](C)n1c(=O)[nH]/c(=N\c2ccc(OCC3CC3)cc2)n(Cc2ccc(Cl)cc2)c1=O [Compound I-1344] | 1.52 |
| Cc1ccc(Cn2c(=O)n(C)c(=O)[nH]/c2=N\c2ccc(Oc3ccc(C(=O)O)cc3)cc2)cc1 [Compound I-2061] | 2.17 |
| COC(=O)[C@@H](C)Cn1c(=O)[nH]/c(=N\c2ccc(CC(C)C)c(Cl)c2)n(Cc2ccc(Cl)cc2)c1=O [Compound I-1370] | 1.28 |
| Cc1[nH]c2ccc(/N=c3\[nH]c(=O)n(CCOC4CCCCO4)c(=O)n3Cc3ccc(Cl)cc3)cc2c1C (centres unmarked) [Compound I-2038] | 1.11 |
| COc1cc(/N=c2\[nH]c(=O)n(CC(C)(C)C(=O)O)c(=O)n2Cc2ccc(Cl)cc2)ccc1OC(C)C [Compound I-1265] | 1.34 |
| COC(=O)[C@@H](C)Cn1c(=O)[nH]/c(=N\c2ccc3oc(C)cc3c2)n(Cc2ccc(C)cc2)c1=O [Compound I-0671] | 1.18 |
| CCn1c(=O)[nH]/c(=N\c2ccc(Oc3cccc4[nH]ncc34)c(Cl)c2)n(Cc2ccc(Cl)cc2)c1=O [Compound I-2196] | 2.65 |
| O=c1[nH]/c(=N\c2ccc3nc(C(F)(F)F)sc3c2)n(Cc2ccc(Cl)cc2)c(=O)n1CCO [Compound I-2167] | 1.73 |
| O=c1[nH]/c(=N\c2ccc(OC3CCC3)cc2)n(Cc2ccc(Cl)cc2)c(=O)n1CCCO [Compound I-1918] | 1.08 |
| CCn1c(=O)[nH]/c(=N\c2ccc(Oc3nccc(O)n3)cc2)n(Cc2ccc(Cl)cc2)c1=O [Compound I-2108] | 1.41 |

So what does the record say about log10(IC50) for CC(C)Oc1ccc(/N=c2\[nH]c(=O)n(CCCS(=O)(=O)O)c(=O)n2Cc2ccc(Cl)cc2)cc1F [Compound I-0645] ?
2.01

Another compound to look at: Cc1oc2ccc(/N=c3\[nH]c(=O)n(CC4COC(C)(C)OC4)c(=O)n3Cc3ccc(Cl)cc3)cc2c1C [Compound I-2071]
0.90

Thanks! And CC1Cc2cc(/N=c3\[nH]c(=O)n(C[C@H](C)C(=O)O)c(=O)n3Cc3ccc(Cl)cc3)ccc2O1 (some centres unmarked) [Compound I-1466] ?
2.08

Next entry: COC(=O)[C@@H](C)Cn1c(=O)[nH]/c(=N\c2ccc(CCC3CC3)cc2)n(Cc2ccc(C)cc2)c1=O [Compound I-1202]
1.97

###

Target: UniProtKB P56373
Assay: Evaluation of human P2X3 receptor inhibitory activity (Fluo-3 calcium fluorescence, FDSS 3000, ATP stimulation)
Type: cell-based
Conditions: C6BU-1 cells stably expressing human P2X3 receptor
pIC50: −log10 of the molar value.
Use 8 as the dividing line for pIC50, with the line itself on the met side and lower values as not met.

| compound | cat |
| --- | --- |
| CC(C)Oc1ccc(/N=c2\[nH]c(=O)n(Cc3ccc(=O)[nH]c3)c(=O)n2Cc2ccc(Cl)cc2)cc1F [Compound I-0649] | not met |
| COCc1cc(/N=c2\[nH]c(=O)n(CC(C)(C)C(=O)OC)c(=O)n2Cc2ccc(Cl)cc2)ccc1OC(C)C [Compound I-1422] | not met |
| CCn1c(=O)[nH]/c(=N\c2ccc(Oc3cncc(C(N)=O)c3)cc2)n(CC2CCC3(CC2)CC3)c1=O [Compound I-2178] | met |

pIC50 >= 8 for COC(=O)[C@@H](C)Cn1c(=O)[nH]/c(=N\c2ccc(NC(C)=O)cc2)n(Cc2ccc(C)cc2)c1=O [Compound I-1415] ?
not met

###

Molecular target: human P2X3 receptor (Homo sapiens (Human), UniProt P56373)
Assay: Evaluation of human P2X3 receptor inhibitory activity (Fluo-3 calcium fluorescence, FDSS 3000, ATP stimulation)
Assay type: cell-based
Details: C6BU-1 cells stably expressing human P2X3 receptor
Here the recorded pIC50 is given for each entry.
Note on pIC50: it is the negative log10 of concentration, concentration in mol/L.

| smiles repr | pIC50 |
| --- | --- |
| C[C@@H](Cn1c(=O)[nH]/c(=N\c2ccc(OC(F)F)c(F)c2)n(Cc2ccc(Cl)cc2)c1=O)C(=O)O | 6.96 |
| COC(=O)[C@H](C)[C@H](C)n1c(=O)[nH]/c(=N\c2ccc(OC(C)C)c(C)c2)n(Cc2ccc(Cl)cc2)c1=O | 7.47 |
| CCn1c(=O)[nH]/c(=N\c2ccc(Oc3ccsc3C(=O)O)cc2)n(Cc2ccc(Cl)cc2)c1=O | 6.96 |
| COC(=O)[C@H](C)[C@H](C)n1c(=O)[nH]/c(=N\c2ccc(CC(C)C)c(Cl)c2)n(Cc2ccc(C)cc2)c1=O | 7.27 |
| COC(=O)[C@@H](C)Cn1c(=O)[nH]/c(=N\c2ccc(Oc3cc(C)nc(C)c3)cc2)n(Cc2ccc(C)cc2)c1=O | 7.74 |

Next compound, please.
What reported pIC50 corresponds to COC(=O)[C@H](C)Cn1c(=O)[nH]/c(=N\c2ccc(OC(C)C)c(C)c2)n(CC2CCCCC2)c1=O on human P2X3 receptor (Homo sapiens (Human), UniProt P56373)?
8.00

###

Biological target: human P2X3 receptor (Homo sapiens (Human), UniProt P56373)
Assay: Evaluation of human P2X3 receptor inhibitory activity (Fluo-3 calcium fluorescence, FDSS 3000, ATP stimulation);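 note: stimulus was 50 nM ATP with fluorescence followed for 3 min, and the response per well was peak post-ATP fluorescence divided by the reading at measurement start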
Assay type: cell-based
Conditions: human P2X3 receptor, Test Example 1
assay metric: pIC50
Kindly note that pIC50 refers to -log10 of the concentration in mol/L and answer with the value alone.

Please review the following examples before continuing.
| compound | pIC50 |
| --- | --- |
| Cn1c(=O)[nH]/c(=N\c2ccc(Oc3nc(C(N)=O)cs3)cc2)n(Cc2ccc(Cl)cc2)c1=O [Compound I-2415] | 8.05 |
| O=C(Cn1c(=O)[nH]/c(=N\c2ccc(Oc3cccc(F)n3)cc2)n(Cc2ccc(Cl)cc2)c1=O)NCCO [Compound I-2679] | 8.30 |
| Cn1c(=O)[nH]/c(=N\c2ccc(Oc3cccc(C#N)n3)c(F)c2)n(Cc2ccc(Cl)cc2)c1=O [Compound I-2493] | 8.30 |
| CCCOc1ccc(/N=c2\[nH]c(=O)n(C[C@H](CC)C(=O)OC)c(=O)n2Cc2ccc(Cl)cc2)cc1 [Compound I-0888] | 7.52 |
| O=C(Cn1c(=O)[nH]/c(=N\c2ccc(Oc3ncns3)cc2)n(Cc2ccc(Cl)cc2)c1=O)NCCO [Compound I-2674] | 8.30 |

Then this compound:
Can you share its pIC50? I mean this compound: COC(=O)[C@H](C)Cn1c(=O)[nH]/c(=N\c2ccc(N3CCCCC3)cc2)n(Cc2ccc(Cl)cc2)c1=O [Compound I-1484]
8.22
